- experimental-target: activated ERK2 (Homo sapiens (Human), UniProt P28482)
- Sequence (P28482 whole entry): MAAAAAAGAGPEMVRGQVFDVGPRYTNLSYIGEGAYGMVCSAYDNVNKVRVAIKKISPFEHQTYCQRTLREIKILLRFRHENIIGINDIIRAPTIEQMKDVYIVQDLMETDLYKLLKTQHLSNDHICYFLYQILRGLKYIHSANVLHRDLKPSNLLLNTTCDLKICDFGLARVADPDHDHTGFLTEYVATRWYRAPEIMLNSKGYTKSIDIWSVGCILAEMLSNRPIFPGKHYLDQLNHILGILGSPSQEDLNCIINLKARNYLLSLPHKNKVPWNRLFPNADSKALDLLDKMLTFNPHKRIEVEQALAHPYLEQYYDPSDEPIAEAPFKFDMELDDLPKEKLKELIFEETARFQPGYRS
- assay-summary: Activated ERK2 (20 pM) Kinase Assay (AlphaScreen, ERKtide phosphorylation)
- Type: biochemical
- condition-set: 0.02 nM ERK2, 400 nM ERKtide peptide, 35 μM ATP, 30 min preincubation
endpoint-name: IC50 (pM)

>  <compound>
CNC[C@@H](NC(=O)c1ccc(-c2nc([C@@H]3CC[C@@H](O)[C@H](F)C3)cnc2N)cc1F)c1cc(F)cc(Br)c1 [Example 361]

>  <IC50 [pM]>
104

$$$$

P = Nc1ncc(-c2ccncc2)cc1-c1ccc(C(=O)N[C@H](CO)c2ccccc2)cc1 [Example 80]
Q = Nc1ncc(C2CCCC(O)C2)nc1-c1ccc(C(=O)N[C@H](CO)c2cccc(Br)c2)c(F)c1 (single isomer, unassigned) [Example 389]
Q. Hi team, can someone confirm which has the larger IC50: P or Q ? Thanks. Give the label of your selection.
A. P
(P: 510 pM, Q: 30.8 pM)

I = Nc1ncc(C2CCOCC2)nc1-c1ccc(C(=O)N[C@@H](C#CC2CC2)CO)c(F)c1 [Example 321]
II = Nc1ncc(C2CCCC(O)C2)nc1-c1ccc(C(=O)N[C@H](CO)c2cccc(Cl)c2)c(F)c1 (single isomer, unassigned) [Example 391]
Q. Just tell me: smaller IC50 value, I or II ? Give the label of your selection.
A. II

A = Nc1ncc([C@H]2CC[C@@H](O)[C@@H](F)C2)nc1-c1ccc(C(=O)N[C@H](CO)c2cc(F)cc(Br)c2)c(F)c1 [Example 186]
B = Nc1ncc([C@H]2CC[C@H](F)CC2)nc1-c1ccc(C(=O)N[C@H](CO)c2cccc(Cl)c2)c(F)c1 [Example 449]
Q. Just tell me: smaller IC50 value, A or B ? Give the label of your selection.
A. B
(B: 184 pM, A: 653 pM)

----------
- experimental-target: activated ERK2 (Homo sapiens (Human))
- assay-summary: Activated ERK2 kinase assay, ERK2 New conditions (AlphaScreen, ERKtide phosphorylation)
- Type: biochemical
- condition-set: 0.25 nM ERK2, 200 nM ERKtide peptide, 35 μM ATP, 30 min preincubation
endpoint-name: IC50 (nM)

These recorded examples may help you get a feel for the data.
>  <compound>
Nc1ncc(C2CCOCC2)nc1-c1ccc2c(c1)OCCN(Cc1ccccc1)C2=O [Example 109]

>  <IC50 (nM)>
5.81

$$$$
>  <compound>
Cn1cnnc1-c1cnc(N)c(-c2ccc(C(=O)N[C@H](CO)c3cccc(Cl)c3)c(F)c2)c1 [Example 167]

>  <IC50 (nM)>
0.998

$$$$
>  <compound>
NC[C@@H](NC(=O)c1ccc(-c2nc(C3CC3)cnc2N)cc1F)c1ccccc1 [Example 252]

>  <IC50 (nM)>
2.6

$$$$
>  <compound>
Cc1cccc([C@@H](CO)NC(=O)c2ccc(-c3cc(-c4ccnn4C)cnc3N)cc2F)c1 [Example 231]

>  <IC50 (nM)>
0.217

$$$$

a = Cc1nn(C)cc1-c1cnc(N)c(-c2ccc(C(=O)N[C@H](CO)c3cccc(F)c3)c(F)c2)c1 [Example 282]
b = Nc1ncc([C@H]2CC[C@@H](N)CC2)nc1-c1ccc(C(=O)N[C@H](CO)c2cccc(Cl)c2)c(F)c1 [Example 192]
c = COCCn1cc(-c2cnc(N)c(-c3ccc(C(=O)N[C@H](CO)c4cccc(Cl)c4)c(F)c3)c2)cn1 [Example 172]
Q. Arrange these 3 compounds in increasing order of IC50. Form field (ranking): labels in requested order.
A. c, a, b

Attribution: patent US9242996B2
